Test system: KM20L2 colon
protocol text: NCI tumour cell line growth inhibition, 48 h
test readout: TGI

compound: COc1cc(C2C(C(=O)O)=C(CO)Oc3cc4c(cc32)OCO4)cc(OC)c1O (stereo not drawn)
TGI: > 100 µM

Entry under review: "Cc1c(/C=N/NC(=O)c2cc(Br)cc(Br)c2O)c(=O)n(-c2ccccc2)n1C" . Reported TGI? > 100 µM

Ok, now "O=C1C(Br)=CC2(C=C1Br)CCNC1=C2C(=O)c2ccccc2C1=O" 91.8 µM

----------
Tested on: BT-549 breast
protocol text: NCI tumour cell line growth inhibition, 48 h
test readout: TGI

Example entries and their recorded answers appear below.
compound: CCOC(=O)c1c2c(n3ccccc13)C(=O)c1ccccc1C2=O
assay target: BT-549 breast
assay result: > 100 µM
--
compound: O=C1CC(c2ccc(O)cc2)C2(O1)C(=O)OC(C(O)CO)C2O (stereo not drawn)
assay target: BT-549 breast
assay result: > 100 µM

Now consider a different compound.
Give the reported TGI for COC(=O)c1ccccc1CC1Cc2ccc3c(c2C1=O)CCC3 (stereo not drawn) (system: BT-549 breast). > 100 µM
